# Experiment description: Inhibition of GTPase activity of transducer
Result type: IC50 (µM)
Expressed in µM, but write only the number.

Query: Identify measured IC50 associated with N#CC(C#N)=Cc1ccc(O)c(O)c1 [TYRPHOSTIN 23]
Reply: 10

====

The compounds below have reported ΔTm for Death-associated protein kinase 3 (Homo sapiens) (UniProt O43293).
Expressed in °C, but write only the number.

Query: Identify measured ΔTm associated with CN(C)CC1CCn2c(c(C3=C(c4c[nH]c5ccccc45)C(=O)NC3=O)c3ccccc32)C1 (stereo unspecified)
Reply: 0.5

Query: Identify measured ΔTm associated with CC(C)n1cnc2/c(=N/c3cccc(Cl)c3)nc(NCCO)[nH]c21
Reply: 2.2

Query: Identify measured ΔTm associated with Ic1cccc(CSc2nnc(-c3ccncc3)o2)c1
Reply: 0.2

Query: Identify measured ΔTm associated with CN(c1cccnc1)c1cc2c(Nc3ccc(F)c(Cl)c3)c(C#N)cnc2cn1
Reply: 0.7

Query: Identify measured ΔTm associated with NC(=O)c1ccc(-c2nc(-c3ccc4c(c3)OCCO4)c(-c3ccccn3)[nH]2)cc1
Reply: -0.3

Query: Identify measured ΔTm associated with O=S(=O)(NCCNC/C=C/c1ccc(Br)cc1)c1cccc2cnccc12
Reply: 3.8

====

The molecules below have reported ΔTm for UniProt P51812.
Sequence (P51812 whole entry): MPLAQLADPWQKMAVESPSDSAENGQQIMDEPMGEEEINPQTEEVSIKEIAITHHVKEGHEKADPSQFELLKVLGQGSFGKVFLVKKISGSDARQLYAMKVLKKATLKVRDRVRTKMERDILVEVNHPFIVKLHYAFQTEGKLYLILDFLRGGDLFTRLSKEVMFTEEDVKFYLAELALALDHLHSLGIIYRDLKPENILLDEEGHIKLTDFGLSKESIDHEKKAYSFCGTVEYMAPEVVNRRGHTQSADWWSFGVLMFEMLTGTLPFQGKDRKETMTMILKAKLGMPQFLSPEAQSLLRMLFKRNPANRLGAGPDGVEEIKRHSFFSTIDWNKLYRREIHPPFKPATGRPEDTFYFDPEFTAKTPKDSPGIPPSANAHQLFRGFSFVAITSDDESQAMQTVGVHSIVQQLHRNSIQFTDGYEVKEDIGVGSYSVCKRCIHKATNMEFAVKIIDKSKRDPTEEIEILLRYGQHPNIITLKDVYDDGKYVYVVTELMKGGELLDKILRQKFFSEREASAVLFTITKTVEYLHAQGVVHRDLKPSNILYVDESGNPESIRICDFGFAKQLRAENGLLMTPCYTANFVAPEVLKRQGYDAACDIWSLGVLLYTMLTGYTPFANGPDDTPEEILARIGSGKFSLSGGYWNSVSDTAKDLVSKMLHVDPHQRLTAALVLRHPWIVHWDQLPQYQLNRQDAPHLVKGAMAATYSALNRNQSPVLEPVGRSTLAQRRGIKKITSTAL
Expressed in °C, but write only the number.

Query: Identify measured ΔTm associated with CC(C)n1cnc2c(NCc3ccccc3)nc(NCCCO)nc21
Reply: 2.5

Query: Identify measured ΔTm associated with COc1cc2ncnc(Nc3ccc(F)c(Cl)c3)c2cc1OCCCN1CCOCC1
Reply: 5.3

Query: Identify measured ΔTm associated with Oc1cccc(-c2nc(N3CCOCC3)c3oc4ncccc4c3n2)c1
Reply: -0.6

Query: Identify measured ΔTm associated with Cc1ccc(NC(=O)c2ccc(CN3CCN(C)CC3)cc2)cc1Nc1nccc(-c2cccnc2)n1
Reply: -0.4

Query: Identify measured ΔTm associated with COC1=C2C[C@@H](C)C[C@H](OC)[C@H](O)[C@@H](C)/C=C(\C)[C@H](OC(N)=O)[C@@H](OC)/C=C\C=C(/C)C(=O)NC(=CC1=O)C2=O
Reply: -0.3

====

# Test system: Ribosomal protein S6 kinase alpha-3 (Homo sapiens)
Consider the cut-off 0.5 °C. If the recorded ΔTm is strictly smaller, the label is fulfilled; if not, the label is not fulfilled.

Query: Please check: ΔTm for N#C/C(=C\c1ccc(O)c(O)c1)C(=O)NCc1ccccc1 , strictly under 0.5 °C or not?
Reply: not fulfilled

Query: Please check: ΔTm for COc1cc(O)c2c(c1)oc(=O)c1c3cc(O)c(O)cc3oc21 , strictly under 0.5 °C or not?
Reply: not fulfilled

Query: Please check: ΔTm for Cn1cnc2c(NCc3ccccc3)nc(NCCO)nc21 , strictly under 0.5 °C or not?
Reply: fulfilled

Query: Please check: ΔTm for Cc1c2ccncc2c(C)c2c1[nH]c1ccccc12 , strictly under 0.5 °C or not?
Reply: not fulfilled

Query: Please check: ΔTm for Nc1cccc(-c2cc3c(Oc4cccc(O)c4)ncnc3[nH]2)c1 , strictly under 0.5 °C or not?
Reply: fulfilled

Query: Please check: ΔTm for O=C1Nc2ccc(I)cc2/C1=C\c1cc(Br)c(O)c(Br)c1 , strictly under 0.5 °C or not?
Reply: not fulfilled

Query: Please check: ΔTm for CN(c1cccnc1)c1cc2c(Nc3ccc(F)c(Cl)c3)c(C#N)cnc2cn1 , strictly under 0.5 °C or not?
Reply: not fulfilled

Query: Please check: ΔTm for O=C1Nc2ccc(I)cc2/C1=C1/Nc2ccccc2/C1=N\O , strictly under 0.5 °C or not?
Reply: not fulfilled

Query: Please check: ΔTm for NC(=O)c1ccc(-c2nc(-c3ccc4c(c3)OCCO4)c(-c3ccccn3)[nH]2)cc1 , strictly under 0.5 °C or not?
Reply: fulfilled

====

Please provide measured ΔTm for the entries that follow.

Query: Provide ΔTm, system Serine/threonine-protein kinase VRK2 (Homo sapiens), entry NC(=O)c1ccc(-c2nc(-c3ccc4c(c3)OCCO4)c(-c3ccccn3)[nH]2)cc1
Reply: 0.5 °C

Query: Provide ΔTm, system Serine/threonine-protein kinase VRK2 (Homo sapiens), entry Cc1cc(Nc2nc(-c3ccccc3)nc3ccccc23)n[nH]1
Reply: 0.4 °C

Query: Provide ΔTm, system Serine/threonine-protein kinase VRK2 (Homo sapiens), entry COc1ccc(S(=O)(=O)N(CCO)c2ccccc2CN(C)C/C=C/c2ccc(Cl)cc2)cc1
Reply: -0.3 °C

Query: Provide ΔTm, system Serine/threonine-protein kinase VRK2 (Homo sapiens), entry Oc1cc(O)cc(/C=C/c2ccc(O)c(O)c2)c1
Reply: -0.4 °C

Query: Provide ΔTm, system Serine/threonine-protein kinase VRK2 (Homo sapiens), entry O=C(O)Cc1ccc(O)c([N+](=O)[O-])c1
Reply: 0.3 °C

====

The molecules below have reported ΔTm for Mitogen-activated protein kinase 11 (Homo sapiens, UniProt Q15759).
Expressed in °C, but write only the number.

Query: Provide ΔTm, system Mitogen-activated protein kinase 11 (Homo sapiens, UniProt Q15759), entry COC1=C2C[C@@H](C)C[C@H](OC)[C@H](O)[C@@H](C)/C=C(\C)[C@H](OC(N)=O)[C@@H](OC)/C=C\C=C(/C)C(=O)NC(=CC1=O)C2=O
Reply: -0.2

Query: Provide ΔTm, system Mitogen-activated protein kinase 11 (Homo sapiens, UniProt Q15759), entry O=Nc1c(-c2c(O)[nH]c3ccccc23)[nH]c2ccccc12
Reply: 0.7

Query: Provide ΔTm, system Mitogen-activated protein kinase 11 (Homo sapiens, UniProt Q15759), entry Cn1cc(C2=C(c3cn(CCCN)c4ccccc34)C(=O)NC2=O)c2ccccc21
Reply: 0.5

Query: Provide ΔTm, system Mitogen-activated protein kinase 11 (Homo sapiens, UniProt Q15759), entry O=C(O)c1cc(NCc2cc(O)ccc2O)ccc1O
Reply: 0.2

Query: Provide ΔTm, system Mitogen-activated protein kinase 11 (Homo sapiens, UniProt Q15759), entry COc1nccc(-c2c(-c3ccc(F)cc3)ncn2[C@H]2CC[C@H](O)CC2)n1
Reply: 6.6

Query: Provide ΔTm, system Mitogen-activated protein kinase 11 (Homo sapiens, UniProt Q15759), entry CN1CCC(Nc2ncc3ncnc(Nc4ccc(F)c(Cl)c4)c3n2)CC1 [FALNIDAMOL]
Reply: 0

Query: Provide ΔTm, system Mitogen-activated protein kinase 11 (Homo sapiens, UniProt Q15759), entry O=c1cc(-c2ccc(O)cc2)oc2cc(O)cc(O)c12
Reply: 1.7

Query: Provide ΔTm, system Mitogen-activated protein kinase 11 (Homo sapiens, UniProt Q15759), entry CN1CCc2[nH]c(=S)c(C#N)c(-c3cccs3)c2C1
Reply: 4.3

Query: Provide ΔTm, system Mitogen-activated protein kinase 11 (Homo sapiens, UniProt Q15759), entry N#CC(C#N)=Cc1ccc(O)c(O)c1 [TYRPHOSTIN 23]
Reply: 0.3

Query: Provide ΔTm, system Mitogen-activated protein kinase 11 (Homo sapiens, UniProt Q15759), entry CN(C)c1ccc(CC2C(=O)Nc3ccccc32)cc1 (stereo unspecified)
Reply: 0.3

Query: Provide ΔTm, system Mitogen-activated protein kinase 11 (Homo sapiens, UniProt Q15759), entry O=c1cc(N2CCOCC2)oc2c(-c3ccccc3)cccc12
Reply: -0.3

Query: Provide ΔTm, system Mitogen-activated protein kinase 11 (Homo sapiens, UniProt Q15759), entry COc1cc(C[C@H]2C(=O)OC[C@@H]2Cc2ccc(OC)c(OC)c2)ccc1O [ARCTIGENIN]
Reply: -0.2

Query: Provide ΔTm, system Mitogen-activated protein kinase 11 (Homo sapiens, UniProt Q15759), entry O=C1NC(=O)c2c1c1c3ccccc3n3c1c1c2c2ccccc2n1C1CCC3O1
Reply: -0.1

Query: Provide ΔTm, system Mitogen-activated protein kinase 11 (Homo sapiens, UniProt Q15759), entry O=c1c2ccccc2[nH]c(=S)n1CCN1CCC(=C(c2ccc(F)cc2)c2ccc(F)cc2)CC1 [DIACYLGLYCEROL KINASE INHIBITOR II]
Reply: 1.2

Query: Provide ΔTm, system Mitogen-activated protein kinase 11 (Homo sapiens, UniProt Q15759), entry O=c1cc(N2CCOCC2)oc2c1ccc1ccccc12
Reply: 1.1

Query: Provide ΔTm, system Mitogen-activated protein kinase 11 (Homo sapiens, UniProt Q15759), entry O=C1Nc2ccccc2/C1=C1/Nc2ccccc2/C1=N\O
Reply: 2.4

Query: Provide ΔTm, system Mitogen-activated protein kinase 11 (Homo sapiens, UniProt Q15759), entry Nc1nc(Nc2ccc(S(N)(=O)=O)cc2)nn1C(=S)Nc1c(F)cccc1F
Reply: 1.9

Query: Provide ΔTm, system Mitogen-activated protein kinase 11 (Homo sapiens, UniProt Q15759), entry O=C(O)/C=C/c1cc(CO)ccc1CO
Reply: 0.3

Query: Provide ΔTm, system Mitogen-activated protein kinase 11 (Homo sapiens, UniProt Q15759), entry O=C1Nc2ccc(I)cc2/C1=C1/Nc2ccccc2/C1=N\O
Reply: 1.3

Query: Provide ΔTm, system Mitogen-activated protein kinase 11 (Homo sapiens, UniProt Q15759), entry Cn1cnc2c(NCc3ccccc3)nc(NCCO)nc21 [OLOMOUCINE]
Reply: -0.1

Query: Provide ΔTm, system Mitogen-activated protein kinase 11 (Homo sapiens, UniProt Q15759), entry C#Cc1cccc(Nc2ncnc3cc(OCCOC)c(OCCOC)cc23)c1
Reply: 0
